Each entry below carries its recorded CC50.
system: 60 different human tumor cell lines; test: cells; settings: M14, read-out: LC50

The examples below pair each entry with its known result.
C[C@]12CC[C@H]3[C@@H](CC=C4c5sc(Nc6ccccc6)nc5CC[C@@]43C)[C@@H]1CC[C@@H]2O ... 9.9 µM
C[C@]12CC[C@H]3[C@@H](CC=C4c5sc(-c6ccc(O)cc6)nc5CC[C@@]43C)[C@@H]1CC[C@@H]2O ... > 100 µM

Dear colleague, I am looking for the recorded CC50 of the following compound: `C[C@]12CCc3sc(Nc4cccc(O)c4)nc3C1=CC[C@@H]1[C@@H]2CC[C@]2(C)C(=O)CC[C@@H]12`
> 100 µM

Same lookup for `C[C@]12CCc3sc(NCCc4ccccc4)nc3C1=CC[C@@H]1[C@@H]2CC[C@]2(C)C(=O)CC[C@@H]12` , please.
> 100 µM

And for `C[C@]12CCc3sc(Nc4ccc(F)cc4F)nc3C1=CC[C@@H]1[C@@H]2CC[C@]2(C)C(=O)CC[C@@H]12` ?
> 100 µM

* * *

system: 60 different human tumor cell lines; assay: NCI Development Therapeutics Program 60 cell line screen, one dose; type: cell-based; conditions: Non-small Cell Lung Cancer, NCI-H23
Label 1.0 when Growth Percent is strictly below 70%; at or above that, label 0.0.

Previously resolved entries follow.
C[C@]12CCc3sc(Nc4ccc(F)cc4F)nc3C1=CC[C@@H]1[C@@H]2CC[C@]2(C)C(=O)CC[C@@H]12 ... 1.0
C[C@]12CCc3sc(Nc4ccc(OC(F)(F)F)cc4)nc3C1=CC[C@@H]1[C@@H]2CC[C@]2(C)C(=O)CC[C@@H]12 ... 0.0
C[C@]12CC[C@H]3[C@@H](CC=C4c5sc(Nc6ccccc6)nc5CC[C@@]43C)[C@@H]1CC[C@@H]2O ... 1.0
C[C@]12CCc3sc(Nc4cccc(O)c4)nc3C1=CC[C@@H]1[C@@H]2CC[C@]2(C)C(=O)CC[C@@H]12 ... 1.0

Now turn to the next compound.
Say whether its Growth Percent is strictly beneath 70%. Entry: `CN(c1ccccc1)c1nc2c(s1)CC[C@@]1(C)C2=CC[C@@H]2[C@@H]1CC[C@]1(C)C(=O)CC[C@@H]21`
0.0

* * *

system: 60 different human tumor cell lines; details: read-out: LC50; SF-268 (CNS Cancer), five dose
metric: CC50 (µM)
# value in µM; strip the unit string

So what's the measured CC50 for this one? `C[C@]12CCc3nc(N)sc3C1=CC[C@@H]1[C@@H]2CC[C@]2(C)C(=NNC(N)=O)CC[C@@H]12`
9.48

* * *

Entries and their CC50
tested on: 60 different human tumor cell lines; assay: cells; conditions: NCI-H522, read-out: LC50
A number alone suffices; assume µM.

C[C@]12CCc3sc(Nc4ccc(OC(F)(F)F)cc4)nc3C1=CC[C@@H]1[C@@H]2CC[C@]2(C)C(=O)CC[C@@H]12 ... 9.7

API: value(readout=CC50, system=60 different human tumor cell lines) for record `C[C@]12CCc3sc(Nc4cccc(O)c4)nc3C1=CC[C@@H]1[C@@H]2CC[C@]2(C)C(=O)CC[C@@H]12`
69.3

Entry `C[C@]12CCc3sc(NCCc4ccccc4)nc3C1=CC[C@@H]1[C@@H]2CC[C@]2(C)C(=O)CC[C@@H]12` please
7.45

// next record `C[C@]12CC[C@H]3[C@@H](CC=C4c5sc(Nc6ccccc6)nc5CC[C@@]43C)[C@@H]1CC[C@@H]2O`
14.3

* * *

system: 60 different human tumor cell lines; assay: cells; settings: SK-MEL-2
Documented GI50 across a set of compounds
Give the value, in units of µM, as a plain number.

# annotated cases, reported GI50 shown
C[C@]12CC[C@H]3[C@@H](CC=C4c5sc(-c6ccc(O)cc6)nc5CC[C@@]43C)[C@@H]1CC[C@@H]2O ... 4.42
C[C@]12CC[C@H]3[C@@H](CC=C4c5sc(Nc6ccccc6)nc5CC[C@@]43C)[C@@H]1CC[C@@H]2O ... 2.51
C[C@]12CCc3sc(NCCc4ccccc4)nc3C1=CC[C@@H]1[C@@H]2CC[C@]2(C)C(=O)CC[C@@H]12 ... 17

Now consider the entry below.
Quick one: GI50 for `C[C@]12CCc3sc(Nc4cccc(O)c4)nc3C1=CC[C@@H]1[C@@H]2CC[C@]2(C)C(=O)CC[C@@H]12` ?
17.1

* * *

tested on: 60 different human tumor cell lines; details: read-out: LC50; MDA-MB-435 (Melanoma), five dose
metric: CC50

C[C@]12CCc3nc(N)sc3C1=CC[C@@H]1[C@@H]2CC[C@]2(C)C(=NNC(N)=O)CC[C@@H]12 ... 5.49 µM

Moving on to another compound below.
Which value of CC50 has been reported for `C[C@]12CCc3nc(Nc4ccc(O)cc4)sc3C1=CC[C@@H]1[C@@H]2CC[C@]2(C)C(=O)CC[C@@H]12` in the records?
> 100 µM

* * *

tested on: SR; test: NCI 60 five dose screen; conditions: read-out: LC50; SR (Leukemia), five dose
metric: CC50

C[C@]12CCc3nc(Nc4ccc(O)cc4)sc3C1=CC[C@@H]1[C@@H]2CC[C@]2(C)C(=O)CC[C@@H]12 [IIa.35] ... > 100 µM

Below: the item to evaluate.
Fill in the recorded CC50 for this compound, with SR as test system: C[C@]12CCc3nc(N)sc3C1=CC[C@@H]1[C@@H]2CC[C@]2(C)C(=NNC(N)=O)CC[C@@H]12 [IVb.1]
> 100 µM

* * *

# GI50 per record follows
test system: 60 different human tumor cell lines; test: cells; conditions: UO-31
Remember to quote the unit after the number.

C[C@]12CC[C@H]3[C@@H](CC=C4c5sc(-c6ccc(O)cc6)nc5CC[C@@]43C)[C@@H]1CC[C@@H]2O ... 2.48 µM
C[C@]12CCc3sc(NCCc4ccccc4)nc3C1=CC[C@@H]1[C@@H]2CC[C@]2(C)C(=O)CC[C@@H]12 ... 4.03 µM
C[C@]12CC[C@H]3[C@@H](CC=C4c5sc(Nc6ccccc6)nc5CC[C@@]43C)[C@@H]1CC[C@@H]2O ... 1.67 µM

Consider the record given below.
State its GI50 on 60 different human tumor cell lines: `C[C@]12CCc3sc(Nc4cccc(O)c4)nc3C1=CC[C@@H]1[C@@H]2CC[C@]2(C)C(=O)CC[C@@H]12`
5.26 µM

* * *

Quick reference for Growth Percent among some compounds
system: 60 different human tumor cell lines; assay: NCI Development Therapeutics Program 60 cell line screen, one dose; type: cell-based; details: Colon Cancer, KM12
Express your answer in %, writing the number without its unit.

// solved cases for Growth Percent follow
C[C@]12CCc3sc(Nc4ccc(OC(F)(F)F)cc4)nc3C1=CC[C@@H]1[C@@H]2CC[C@]2(C)C(=O)CC[C@@H]12 ... 53.51
C[C@]12CCc3nc(Nc4ccc(O)cc4)sc3C1=CC[C@@H]1[C@@H]2CC[C@]2(C)C(=O)CC[C@@H]12 ... 46.68
C[C@]12CC[C@H]3[C@@H](CC=C4c5sc(Nc6ccccc6)nc5CC[C@@]43C)[C@@H]1CC[C@@H]2O ... 15.64
C[C@]12CCc3nc(N)sc3C1=CC[C@@H]1[C@@H]2CC[C@]2(C)C(=NNC(N)=O)CC[C@@H]12 ... 20.47

# context switch: different compound, same Growth Percent
Can you look up the measured Growth Percent of `C[C@]12CC[C@H]3[C@@H](CC=C4c5sc(-c6ccc(O)cc6)nc5CC[C@@]43C)[C@@H]1CC[C@@H]2O` for me?
60.79

* * *

test system: SK-MEL-25; experiment: Melanoma cytotoxicity assay (resazurin); type: cell-based; details: human, 24 h
SK-MEL-25 (% viability) values for the molecules below.
Please state the figure in %; there is no need to write the unit.

As a guide, the following entries are already answered.
C[C@]12CC[C@H]3[C@@H](CC=C4c5sc(Nc6cccc(C(=O)O)c6)nc5CC[C@@]43C)[C@@H]1CC[C@@H]2O [IIIa.35] ... 54.19
C=CCNc1nc2c(s1)C1=CC[C@H]3[C@@H]4CC[C@H](O)[C@@]4(C)CC[C@@H]3[C@@]1(C)CC2 [IIIa.6] ... 3.79
C[C@]12CC[C@H]3[C@@H](CC=C4c5sc(NCCc6ccccc6)nc5CC[C@@]43C)[C@@H]1CC[C@@H]2O [IIIa.5] ... 9.39
C[C@]12CC[C@H]3[C@@H](CC=C4c5sc(Nc6ccc(F)cc6)nc5CC[C@@]43C)[C@@H]1CC[C@@H]2O [IIIa.12] ... 7.33
C[C@]12CC[C@H]3[C@@H](CC=C4c5sc(Nc6ccccc6)nc5CC[C@@]43C)[C@@H]1CC[C@@H]2O [IIIa.10] ... 13.15
C[C@]12CC[C@H]3[C@@H](CC=C4c5sc(Nc6ccccn6)nc5CC[C@@]43C)[C@@H]1CC[C@@H]2O [IIIa.24] ... 1.76

Proceeding to the next molecule to report its SK-MEL-25 (% viability).
Which SK-MEL-25 (% viability) value belongs to CCCCNc1nc2c(s1)C1=CC[C@H]3[C@@H]4CC[C@H](O)[C@@]4(C)CC[C@@H]3[C@@]1(C)CC2 [IIIa.4] ?
2.63

Entry source: patent US20250296953A1
